SUBJECT_OF_TEST: SET/WRAD2 complex (Homo sapiens)
Construct: expressing amino acids 5308-5537 of the hKMT2D catalytic SET domain; 6xHis + TEV site (N, cleaved yes); made in house; host or cells: KMT2D Win-SET: Sf21 (baculovirus); H3 peptides bought from Chinese Peptide Company
Sequence (Q15291 whole entry, the tested form may be a part): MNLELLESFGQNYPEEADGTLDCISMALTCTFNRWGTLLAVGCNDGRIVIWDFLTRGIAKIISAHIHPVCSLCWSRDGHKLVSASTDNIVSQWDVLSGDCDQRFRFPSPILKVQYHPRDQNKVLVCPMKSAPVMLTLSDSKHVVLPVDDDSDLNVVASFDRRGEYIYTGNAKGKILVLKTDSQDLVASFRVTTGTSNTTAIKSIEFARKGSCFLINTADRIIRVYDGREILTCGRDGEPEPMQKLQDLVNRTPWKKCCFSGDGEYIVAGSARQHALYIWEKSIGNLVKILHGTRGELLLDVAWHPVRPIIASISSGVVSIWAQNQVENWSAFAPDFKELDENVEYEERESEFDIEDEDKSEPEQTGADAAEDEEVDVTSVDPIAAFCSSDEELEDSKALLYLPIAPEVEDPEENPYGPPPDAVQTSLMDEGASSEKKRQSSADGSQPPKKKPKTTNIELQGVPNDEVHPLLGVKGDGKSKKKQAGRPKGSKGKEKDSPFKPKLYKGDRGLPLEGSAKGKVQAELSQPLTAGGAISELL
Sequence (Q9UBL3 95-628, further chain): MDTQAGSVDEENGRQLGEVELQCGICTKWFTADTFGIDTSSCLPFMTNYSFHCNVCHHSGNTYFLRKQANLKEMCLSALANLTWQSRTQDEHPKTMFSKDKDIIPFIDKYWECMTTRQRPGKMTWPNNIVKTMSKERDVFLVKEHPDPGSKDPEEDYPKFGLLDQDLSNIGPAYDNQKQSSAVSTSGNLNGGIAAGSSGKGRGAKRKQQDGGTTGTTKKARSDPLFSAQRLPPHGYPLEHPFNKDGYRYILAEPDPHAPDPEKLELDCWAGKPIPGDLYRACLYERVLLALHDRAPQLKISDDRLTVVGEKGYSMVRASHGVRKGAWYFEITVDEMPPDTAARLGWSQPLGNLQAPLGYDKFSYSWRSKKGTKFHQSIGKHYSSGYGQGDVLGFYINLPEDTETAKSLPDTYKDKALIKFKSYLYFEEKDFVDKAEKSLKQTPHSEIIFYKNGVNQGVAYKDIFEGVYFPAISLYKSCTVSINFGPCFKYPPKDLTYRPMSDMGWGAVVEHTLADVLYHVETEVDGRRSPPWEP
Sequence (Q9C005 whole entry, further chain, the tested form may be a part): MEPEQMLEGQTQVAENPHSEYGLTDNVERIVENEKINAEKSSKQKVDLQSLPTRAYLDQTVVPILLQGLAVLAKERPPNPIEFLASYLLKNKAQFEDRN
Sequence (O14686 5361-5537): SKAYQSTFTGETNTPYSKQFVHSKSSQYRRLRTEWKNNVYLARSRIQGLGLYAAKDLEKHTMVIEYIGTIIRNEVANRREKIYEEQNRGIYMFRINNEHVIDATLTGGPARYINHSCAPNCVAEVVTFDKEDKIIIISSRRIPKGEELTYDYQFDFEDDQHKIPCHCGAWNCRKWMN
MEASUREMENT_PROTOCOL: Steady-state substrate specificity (peptide and nucleosome substrates), MTase-Glo
Type: biochemical
APPLIED_CONDITIONS: eq 1, substrate Me1H3_1–21, read-out: Kd^(AdoMet)
Procedure: SET domain activity was monitored with a quantitative endpoint assay determining AdoHcy production using MTase-Glo by Promega.[39] […] Luminescence was measured using an Envision 2101 Multilabel plate reader, and product concentrations were calculated using an AdoHcy standard curve. […] Experiments were performed in triplicate and expressed as the mean ± SD. Data were analyzed using nonlinear regression in GraphPad Prism v9.1. Steady-state rates were measured in substrate matrix experiments. […]
MEASURED_METRIC: pKd
In plain terms, pKd is the concentration in mol/L turned into minus its base-10 logarithm.

Tell me measured pKd for C[S+](CC[C@H](N)C(=O)[O-])C[C@H]1O[C@@H](n2cnc3c(N)ncnc32)[C@H](O)[C@@H]1O (stereo partly shown) please. 5.42

----------
SUBJECT_OF_TEST: hKMT2D SET domain (Homo sapiens, UniProt O14686)
Construct: expressing amino acids 5308-5537 of the hKMT2D catalytic SET domain; 6xHis + TEV site (N, cleaved yes); made in house; host or cells: KMT2D Win-SET: Sf21 (baculovirus); H3 peptides bought from Chinese Peptide Company
Sequence (Q9UBL3 95-628): as the sequence (Q9UBL3 95-628, further chain) above
Sequence (Q9C005 whole entry, further chain, the tested form may be a part): as the sequence (Q9C005 whole entry, further chain, the tested form may be a part) above
Sequence (O14686 5361-5537): as the sequence (O14686 5361-5537) above
Sequence (Q15291 whole entry, further chain, the tested form may be a part): as the sequence (Q15291 whole entry, the tested form may be a part) above
MEASUREMENT_PROTOCOL: WRAD2 titration: MTase-Glo steady-state substrate matrix experiments
Assay type: biochemical
APPLIED_CONDITIONS: [WRAD2] 15 nM; [SET] 30 nM; eq 1; read-out: Kd^(AdoMet)
MEASURED_METRIC: pKd
In plain terms, pKd is the concentration in mol/L turned into minus its base-10 logarithm.

Param request: pKd | system hKMT2D SET domain (Homo sapiens, UniProt O14686) | item C[S+](CC[C@H](N)C(=O)[O-])C[C@H]1O[C@@H](n2cnc3c(N)ncnc32)[C@H](O)[C@@H]1O (stereo partly drawn) [AdoMet, S-adenosyl-L-methionine] 6.00

----------
SUBJECT_OF_TEST: hKMT2D SET domain (Homo sapiens)
Construct: expressing amino acids 5308-5537 of the hKMT2D catalytic SET domain; 6xHis + TEV site (N, cleaved yes); made in house; host or cells: KMT2D Win-SET: Sf21 (baculovirus); H3 peptides bought from Chinese Peptide Company
MEASUREMENT_PROTOCOL: WRAD2 titration: MTase-Glo steady-state substrate matrix experiments
Format: biochemical
APPLIED_CONDITIONS: [WRAD2] 125 nM; [SET] 30 nM; eq 1; read-out: Kd^(AdoMet)
MEASURED_METRIC: Kd (nM)
The reply should contain only the number, in nM.

Tell me measured Kd for C[S+](CC[C@H](N)C(=O)[O-])C[C@H]1O[C@@H](n2cnc3c(N)ncnc32)[C@H](O)[C@@H]1O (stereo partly drawn) [AdoMet, S-adenosyl-L-methionine] please. 540

----------
SUBJECT_OF_TEST: hKMT2D SET domain (Homo sapiens, UniProt O14686)
Construct: expressing amino acids 5308-5537 of the hKMT2D catalytic SET domain; 6xHis + TEV site (N, cleaved yes); made in house; host or cells: KMT2D Win-SET: Sf21 (baculovirus); H3 peptides bought from Chinese Peptide Company
MEASUREMENT_PROTOCOL: WRAD2 titration: MTase-Glo steady-state substrate matrix experiments
Format: biochemical
APPLIED_CONDITIONS: [WRAD2] 4 nM; [SET] 125 nM; eq 1; read-out: Kd^(AdoMet)
MEASURED_METRIC: pKd
In plain terms, pKd is the concentration in mol/L turned into minus its base-10 logarithm.

Tell me measured pKd for C[S+](CC[C@H](N)C(=O)[O-])C[C@H]1O[C@@H](n2cnc3c(N)ncnc32)[C@H](O)[C@@H]1O (stereo partly shown) please. 6.19

Values compiled from paper PMC9494746.
